Consider the following molecules and their measured GI50 readings.
Tested on: A549
Test: NCI tumour cell line growth inhibition, 48 h
The source made the active and inactive calls. Cut-off read from the data, not from the text of the source: active = GI50 up to about 1.1 µM and inactive = higher.
measurement type: GI50

* CCCCc1c2c(c(C)c3c1C(=O)OC3)Oc1ccccc1O2 | 1.73 µM (inactive)
* CNC(=O)CN(CC(N)=O)C(N)=O | > 100 µM (inactive)
* O=C(O)c1cc(NCc2cc(O)ccc2O)ccc1O | > 100 µM (inactive)
* COC(=O)C1=C(C[S+]([O-])c2ccc([N+](=O)[O-])cc2[N+](=O)[O-])C2C=CC1C2 (stereo not given) | 57 µM (inactive)
* CC1OC(n2cc(F)c(=O)[nH]c2=O)C(O[Si](C)(C)C(C)(C)C)C1O[Si](C)(C)C(C)(C)C (stereo not given) | 15.8 µM (inactive)
* COc1ccc(CC2OC3(CCCCC3)CC3CCCCN32)cc1 (stereo not given) | > 100 µM (inactive)
* COc1ccccc1NC(=O)CC(=O)n1nc(C)c(/N=N/c2ccccc2C(=O)O)c1C | > 100 µM (inactive)
* CCN(CC)CC(C(=O)Nc1c(C)cccc1C)/C(C)=N\NC(=O)c1ccncc1 (stereo not given) | > 100 µM (inactive)
* CC(=O)Oc1ccc2cc(Oc3ccccc3)c(=O)oc2c1 | 48.2 µM (inactive)
* O=C(CCC(=O)CC(O)(C(F)(F)F)C(F)(F)F)CC(O)(C(F)(F)F)C(F)(F)F | 46.8 µM (inactive)

---

System: UACC-62
Assay: NCI tumour cell line growth inhibition, 48 h
Active and inactive are the calls of the source. No stated cut-off is given here; in the data, active = GI50 up to about 1.1 µM and inactive = higher.
Labels: active, inactive

• [N-]=[N+]=C(C(=O)OCC#CCOC(=O)C(=[N+]=[N-])S(=O)(=O)c1ccccc1)S(=O)(=O)c1ccccc1 = inactive
• CC(C)OCN/C(N)=N\C#N = inactive
• CCOC(=O)CC(=O)Sc1ccccc1 = inactive
• Cn1c2ccccc2c(=S)c2cc(NC(=O)CCCCC(=O)Nc3ccc4c(c3)c(=S)c3ccccc3n4C)ccc21 = inactive
• COc1cc(OC)c(/C=N\Nc2nc3ccccc3c(=O)n2-c2ccccc2)c(OC)c1 = inactive
• Cc1ccc2c(ccc(/C=C\c3cc(C)c4cccnc4c3O)[n+]2C)c1 = active
• Cc1ccc(S(=O)(=O)N/N=C2\CCCCC23CCC(=O)NC3)cc1 (configuration not stated) = inactive
• Cc1ccc(N2CCN(CCC(=O)O)CC2)cc1 = inactive
• CSc1ccccc1P(CCP(c1ccccc1SC)c1ccccc1SC)c1ccccc1SC = inactive
• NC1=NC(=O)[C@H](Cc2c[nH]c3ccccc23)N1C(=O)OCc1ccccc1 = inactive
• CC1=NN(C(=O)CC(=O)Nc2ccccc2)C(=O)C1/N=N/c1ccc(C(=O)O)cc1 (configuration not stated) = inactive
• Clc1c2nc3ccccc3c-2[nH]c2ccccc12 = inactive
• COc1ccc(CN/C=N/C(C#N)=C(\N)C#N)cc1OC = inactive
• CC/C=C/C(/C=C/C[C@]1(CC)C[C@H](CC)[C@H](CC(=O)O)OO1)CC (some centres not stated) = inactive
• CCOC(=O)c1[nH]c2c(OC)n[n+]([O-])cc2c1[N+](=O)[O-] = inactive
• COc1cc(C2SC(=N)Nc3c2c(C)nn3C(=O)c2ccc(Cl)cc2)ccc1O (configuration not stated) = inactive
• CC(/C=N\NC(=S)N(C)C)=N/NC(=S)N(C)C = active
• O=C1CC(O)C=C1Nc1ccc(Cl)cc1 (configuration not stated) = active
• O=C(N[C@@H](c1ccccc1)[C@@H](O)C(=O)OCc1ccc([N+](=O)[O-])cc1)c1ccccc1 = inactive
• CCOC(=O)C1=C(C)N2CCCOC2(C)C(C(=O)OC)C1c1cccc([N+](=O)[O-])c1 (configuration not stated) = inactive
• CC1(C)C(=NNC(=O)C[N+](C)(C)C)C(C)(C)C1=NNC(=O)C[N+](C)(C)C = inactive
• CCCCN1CN2C(=O)C(C(=O)OCC)C(=O)c3sc4nc(SC)nc1c4c32 (configuration not stated) = inactive
• CC(C)c1cc(Cl)nc(Cl)n1 = inactive
• C=CC1(CC[C@]2(c3ccc(OC)c(OC)c3)C=[N+]([O-])O[C@H](O[C@@H]3CCCC[C@H]3C(C)(C)c3ccccc3)C2)OCC(C)(C)CO1 = inactive
• CN(CCNC(=O)c1n[nH]c2c1Cc1ccccc1-2)CCNC(=O)c1n[nH]c2c1Cc1ccccc1-2 = inactive
• CC/C=C/c1cc2cc[nH]c2c2c1C(C)C[C@@H]2C (some centres not stated) = inactive
• NCCCc1ccc2oc3ccccc3c2c1 = inactive
• COc1ccc(-c2csc(Cc3nc4c(Br)cc(Br)cc4c(=O)n3-c3ccc(OC)cc3)n2)cc1 = inactive
• CC(=O)C(C(=O)c1ccc(C)cc1)[C@@H]1OC(C)(C)O[C@@H]1[C@H]1COC(C)(C)O1 (some centres not stated) = inactive
• O=C(O)c1cc(NCc2cc(O)ccc2O)ccc1O = inactive
• CNC(=O)CN(CC(N)=O)C(N)=O = inactive
• CCOP(=O)(OCC)/C(=C\n1c(=S)[nH]c2cc(C)ccc21)C(=O)OC = inactive
• Nc1nc(Sc2ccc([N+](=O)[O-])cn2)c2nc[nH]c2n1 = inactive
• Cc1ccc(C(=O)CC(O)(C(F)(F)F)C(F)(F)F)cc1[N+](=O)[O-] = inactive
• Cc1ccc(/C=C/C(=O)c2cccc3ccccc23)cc1 = inactive
• O=C(CC1(O)C(=O)Nc2ccccc21)c1ccncc1 (configuration not stated) = inactive
• Oc1c(Cl)cc2cc1-c1cc(cc(Cl)c1O)CCc1c(cc(Cl)c(O)c1Cl)-c1cc(Cl)c(c(Cl)c1O)/C=C\2 = inactive
• CCC/C(Cl)=N/OC(NC(=O)OCC)(C(F)(F)F)C(F)(F)F = inactive
• N#CC(C#N)=c1ccc(=C2NCC3CCCN23)cc1 (configuration not stated) = inactive
• CC(C)(O)C(O)COc1c2c(cc3oc(=O)ccc13)OCO2 (configuration not stated) = inactive
• CC(=O)N1N=C(c2ccc3ccccc3c2O)CC1C(=O)c1ccco1 (configuration not stated) = inactive
• COC(=O)C1CCC(=O)N1C(c1cc(OC)c(OC)c(OC)c1)c1cc(OC)c(OC)c(OC)c1 (configuration not stated) = inactive
